- assayRemarks: Microsomal stability assay, rat liver microsomes (RLM)
- Assay type: in vitro ADME
- conditionsUsed: rat liver microsomes 0.5 mg/mL, 1 uM substrate, 2 mM NADPH, 37° C., referenced against time zero control
Threshold-based label: RLM (% remaining @ 30 minutes) under 90% gives YES, RLM (% remaining @ 30 minutes) not under 90% gives NO.

smilesInput: O=C(Nc1cc[nH]c(=O)c1)c1cc(Cl)c(Cl)cc1Oc1ccc(F)cc1
labelClass: NO
--
smilesInput: Cc1cc(F)ccc1Oc1cc(C(F)(F)F)ccc1C(=O)Nc1cc[nH]c(=O)c1
labelClass: YES
--
smilesInput: O=C(Nc1cc[nH]c(=O)c1)c1cc(C(F)(F)F)ccc1Oc1ccccc1OC(F)F
labelClass: NO
--
smilesInput: O=C(Nc1cc[nH]c(=O)c1)c1cc(Cl)ccc1Oc1ccc(F)cc1Cl
labelClass: NO
--
smilesInput: O=C(Nc1cc[nH]c(=O)c1)c1cc(C(F)(F)F)ccc1Oc1ccc(F)cc1Cl
labelClass: NO
--
smilesInput: CCOc1ccc(Oc2ccc(C(F)(F)F)cc2C(=O)Nc2cc[nH]c(=O)c2)cc1
labelClass: YES
--
smilesInput: O=C(Nc1cc[nH]c(=O)c1)c1ccc(C(F)(F)F)cc1Oc1ccc(OC(F)F)cc1
labelClass: NO

====

- assayRemarks: Microsomal stability assay, rat liver microsomes (RLM)
- Type: in vitro ADME
- conditionsUsed: rat liver microsomes 0.5 mg/mL, 1 uM substrate, 2 mM NADPH, 37° C., referenced against time zero control
Threshold-based label: RLM (% remaining @ 30 minutes) under 90% gives fulfilled, RLM (% remaining @ 30 minutes) not under 90% gives not fulfilled.

smilesInput: Cc1ccccc1Oc1ccc(C(F)(F)F)cc1C(=O)Nc1cc[nH]c(=O)c1
labelClass: fulfilled

smilesInput: O=C(Nc1cc[nH]c(=O)c1)c1c(Oc2ccc(F)cc2F)cc(C(F)(F)F)cc1C(F)(F)F
labelClass: not fulfilled

smilesInput: O=C(Nc1cc[nH]c(=O)c1)c1ccc(C(F)(F)C(F)(F)F)cc1Oc1ccc(F)cc1
labelClass: not fulfilled

smilesInput: CC(C)(C)c1ccc(C(=O)Nc2ccc(=O)[nH]c2)c(Oc2ccc(C(F)(F)F)nc2)c1
labelClass: fulfilled

smilesInput: O=C(Nc1cc[nH]c(=O)c1)c1ccc(C(F)(F)F)cc1OCCCC(F)(F)F
labelClass: not fulfilled

smilesInput: O=C(Nc1cc[nH]c(=O)c1)c1cc(C(F)(F)F)ccc1Oc1ccc(F)cc1
labelClass: not fulfilled

smilesInput: O=C(Nc1cc[nH]c(=O)c1)c1cc(C(F)(F)F)ccc1Oc1ccccc1OC(F)(F)F
labelClass: not fulfilled

====

- assayRemarks: Microsomal stability assay, rat liver microsomes (RLM)
- Format: in vitro ADME
- conditionsUsed: rat liver microsomes 0.5 mg/mL, 1 uM substrate, 2 mM NADPH, 37° C., referenced against time zero control
measuredMetric: RLM (% remaining @ 30 minutes) (%)

smilesInput: O=C(Nc1cc[nH]c(=O)c1)c1ccc(C(F)(F)F)cc1OCC1CCCC1
unitOfMeasurement: %
reportedValue: 79
--
smilesInput: O=C(Nc1cc[nH]c(=O)c1)c1cc(F)c(Cl)cc1Oc1ccc(F)cc1Cl
unitOfMeasurement: %
reportedValue: 100
--
smilesInput: COc1cc(F)ccc1Oc1cc(Cl)c(Cl)cc1C(=O)Nc1cc[nH]c(=O)c1
unitOfMeasurement: %
reportedValue: 82
--
smilesInput: O=C(Nc1cc[nH]c(=O)c1)c1cc(C(F)(F)F)ccc1Oc1ccc(OC(F)(F)F)cc1
unitOfMeasurement: %
reportedValue: 95.5
